molecular target: T1, cynomolgus monkey C-MET His tag, monomeric (cynomolgus monkey, UniProt A0M8R7 25-932 (Papio anubis entry)); test: SPR Biacore, IgG captured, monomeric C-MET-His analyte
T1 construct: also called monomeric cyno C-MET; cyCMET
T1 sequence (A0M8R7 25-932 S170N/I621T): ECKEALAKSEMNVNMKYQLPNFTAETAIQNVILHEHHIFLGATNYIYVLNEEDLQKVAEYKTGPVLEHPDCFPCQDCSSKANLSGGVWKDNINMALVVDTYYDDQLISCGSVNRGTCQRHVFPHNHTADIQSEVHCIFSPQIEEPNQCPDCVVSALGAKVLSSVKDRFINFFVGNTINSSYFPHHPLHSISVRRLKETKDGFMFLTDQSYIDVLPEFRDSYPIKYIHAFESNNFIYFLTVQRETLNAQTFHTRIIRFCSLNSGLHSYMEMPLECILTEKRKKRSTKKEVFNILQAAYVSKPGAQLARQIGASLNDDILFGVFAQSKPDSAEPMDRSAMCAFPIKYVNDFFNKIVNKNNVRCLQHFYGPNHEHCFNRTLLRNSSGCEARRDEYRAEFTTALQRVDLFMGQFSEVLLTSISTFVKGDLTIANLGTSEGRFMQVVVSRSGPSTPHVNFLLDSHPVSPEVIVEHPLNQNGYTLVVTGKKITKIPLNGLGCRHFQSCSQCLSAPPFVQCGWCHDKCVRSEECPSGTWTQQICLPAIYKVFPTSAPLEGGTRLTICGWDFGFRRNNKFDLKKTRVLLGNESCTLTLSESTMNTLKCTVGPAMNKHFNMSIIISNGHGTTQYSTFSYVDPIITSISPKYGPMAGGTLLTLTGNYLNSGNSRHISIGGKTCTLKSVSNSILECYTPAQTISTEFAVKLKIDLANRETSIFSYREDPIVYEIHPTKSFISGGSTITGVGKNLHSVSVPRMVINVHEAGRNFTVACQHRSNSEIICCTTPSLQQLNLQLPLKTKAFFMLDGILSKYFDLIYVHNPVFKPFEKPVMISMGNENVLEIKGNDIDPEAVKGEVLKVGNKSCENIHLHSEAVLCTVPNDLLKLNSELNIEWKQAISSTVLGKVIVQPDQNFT
Known koff of a selection of binders
Observation Type: koff

[[record]]
binder = "MH11 (antibody, IgG4, V domains shown) VH: QVQLVQSGAEVKKPGASVKVSCKASGYTFTSYAMHWVRQAPGQGLEWMGWINPSGGSTSYAQKFQGRVTMTRDTSTSTVYMELSSLRSEDTAVYYCARQEITTEFDYWGQGTLVTVSS VL: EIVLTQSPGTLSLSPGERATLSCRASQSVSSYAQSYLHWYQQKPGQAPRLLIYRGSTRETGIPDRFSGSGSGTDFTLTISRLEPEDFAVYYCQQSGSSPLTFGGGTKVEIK"
reported = "0.00018 s⁻¹"

[[record]]
binder = "MH2 (antibody, IgG4, V domains shown) VH: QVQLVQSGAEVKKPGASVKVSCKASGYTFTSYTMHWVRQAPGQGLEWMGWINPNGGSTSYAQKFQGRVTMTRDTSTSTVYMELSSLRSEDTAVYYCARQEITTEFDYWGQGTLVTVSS VL: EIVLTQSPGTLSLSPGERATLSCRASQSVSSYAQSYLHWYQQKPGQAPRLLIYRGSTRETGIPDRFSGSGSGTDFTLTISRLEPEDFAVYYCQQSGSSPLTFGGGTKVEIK"
reported = "0.00021 s⁻¹"

